Quick reference for protein stability index among some sequences
# PROCEDURE_TEXT: protein stability index of a GFP-peptide fusion (GPS, HEK-293T) (PSI 1-6); higher = more stable;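 note: 24-mer peptide tiles fused after GFP, lentivirally expressed, FACS-sorted into six equal bins by GFP/DsRed ratio, decoded by Illumina sequencing, PSI is the read-weighted mean bin number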
# CONDITION_SET: treatment: DMSO; c terminus: a fixed tail appended
Respond with the number and no other words.

Problem: Could you tell me which protein stability index is on file for HQRIHTGEKPFECNECGKAFRWGA [ZNF232] ?
Solution: 2.64

Problem: Could you tell me which protein stability index is on file for PSPPTSPPWGLGPGAGDPAPGIGP [MYCL] ?
Solution: 4.7

Problem: Could you tell me which protein stability index is on file for KSIYYITGESKEQVANSAFVERVR [HSP90AB1] ?
Solution: 3.11
